Entry source: PubChem BioAssay

Molecular target: Albumin (Bos taurus) (UniProt P02769)
Sequence (P02769 whole entry, looked up): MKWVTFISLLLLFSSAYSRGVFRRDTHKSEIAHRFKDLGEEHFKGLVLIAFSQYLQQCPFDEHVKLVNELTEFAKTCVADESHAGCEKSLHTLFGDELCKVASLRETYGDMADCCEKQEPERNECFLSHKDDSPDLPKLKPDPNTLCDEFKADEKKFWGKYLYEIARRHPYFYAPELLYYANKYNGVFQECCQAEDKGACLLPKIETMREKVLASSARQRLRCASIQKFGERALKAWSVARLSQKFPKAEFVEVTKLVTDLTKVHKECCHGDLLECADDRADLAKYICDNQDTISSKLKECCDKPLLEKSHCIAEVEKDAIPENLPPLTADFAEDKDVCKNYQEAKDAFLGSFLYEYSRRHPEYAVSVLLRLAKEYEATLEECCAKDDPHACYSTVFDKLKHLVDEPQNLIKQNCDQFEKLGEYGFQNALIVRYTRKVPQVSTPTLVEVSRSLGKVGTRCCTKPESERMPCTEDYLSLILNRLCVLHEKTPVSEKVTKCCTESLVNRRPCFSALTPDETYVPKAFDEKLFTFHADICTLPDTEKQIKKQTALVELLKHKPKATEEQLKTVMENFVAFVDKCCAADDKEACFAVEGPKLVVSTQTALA
Assay: bovine serum albumin binders on microarray, profiling panel, artefact control for SMM control protein annotation, biochemical, small-molecule microarray, Alexa647 label, 635/667 nm fluorescence (AID 1118);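 further: score merges 667 nm emission intensity and signal-to-noise per printed compound spot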
Settings: BSA-A647 binding, fluorescence 635 nm, higher = more signal
Label YES for high-side composite z-score (at or above 0.6) and NO for low-side composite z-score (below it).

Solved cases (3 shown):
>  <molecule>
O=C1NC(=O)C2C1C=CC(C(O)Cc1ccccc1)N2Nc1ccc(Cl)cc1Cl (configuration not stated)

>  <category>
YES

$$$$
>  <molecule>
COCCOC(=O)N1C(=O)[C@@]2(c3cc(C#CC4=CCCCC4)ccc31)[C@H](C(=O)Nc1nc3ccccc3s1)[C@H]1C(=O)O[C@H](c3ccccc3)[C@H](c3ccccc3)N1[C@@H]2c1ccccc1OCCO

>  <category>
YES

$$$$
>  <molecule>
C=CCNC(=O)[C@@H]1[C@H]2C(=O)O[C@H](c3ccccc3)[C@H](c3ccccc3)N2[C@H](c2ccc(OCCO)cc2)[C@@]12C(=O)Nc1ccc(C#Cc3ccc(OC)cc3)cc12

>  <category>
YES

$$$$

Has OC([C@@H]1CC(c2ccccc2)=NO1)[C@H]1CC(c2ccccc2)=NO1 (some centres not stated) a recorded composite z-score greater than or equal to 0.6?
NO

Has CC(C)C(CO)N1C(=O)[C@@H]2[C@H]3C(=O)OCC=C[C@H]3OC23C=CCN(C(C)C)C(=O)[C@@H]13 (some centres not stated) a recorded composite z-score greater than or equal to 0.6?
NO

Has `CC(C)(C)OC(=O)CC[C@]1(C(=O)O)N=C(c2ccc(OCCCO)cc2)O[C@H]1c1ccccc1N=[N+]=[N-]` a recorded composite z-score greater than or equal to 0.6?
YES

Has `C=C(CCCC)C(=O)CC[C@H](OC(=O)c1cccnc1)c1ccccc1OCCO` a recorded composite z-score greater than or equal to 0.6?
NO

====

Experiment: small-molecule binders of probe aInhba, primary screen, biochemical, small-molecule microarray, 635/667 nm fluorescence (AID 1148);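 further: score merges 667nm spot fluorescence with signal-to-noise for antibody binding to printed compounds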
Details: higher = more signal
The compounds listed here are annotated with their composite z-score.

Sample answers from the record:
>  <compound>
COc1ccc(C(=O)O[C@H]2CC[C@]3(C)C4=C(CCC3C2(C)C)[C@]2(C)CC[C@H]([C@H](C)CCCC(C)C)[C@@]2(C)CC4)cc1 (stereo partly specified)

>  <experimental-readout>
composite z-score

>  <endpoint-result>
-0.103

$$$$
>  <compound>
C=C(CCCC)/C(=C/C[C@@H](OC(C)=O)c1ccccc1OCCO)c1cnc2ccccc2c1

>  <experimental-readout>
composite z-score

>  <endpoint-result>
-0.0736

$$$$
>  <compound>
COc1ccc(CCNC(=O)[C@@]2(C)c3ccccc3C(=O)N(Cc3cc(F)cc(C(F)(F)F)c3)[C@H]2c2ccc(CO)cc2)cc1

>  <experimental-readout>
composite z-score

>  <endpoint-result>
-0.0791

$$$$
>  <compound>
CC1CC/C=C\[C@H]2OC34C=CCN(Cn5nnc6ccccc65)C(=O)[C@H]3N(C(CO)C(C)C)C(=O)[C@@H]4C2C(=O)O1 (stereo partly specified)

>  <experimental-readout>
composite z-score

>  <endpoint-result>
-0.159

$$$$
>  <compound>
O=C(NCc1ccccc1)[C@@]1(Cc2ccccc2)N=C(c2ccc(OCCCO)cc2)O[C@H]1c1ccccc1

>  <experimental-readout>
composite z-score

>  <endpoint-result>
0.161

$$$$

Let's switch to this compound now.
For `C=CCOC(=O)[C@H]1[C@@H]2C(=O)O[C@@H](c3ccccc3)[C@@H](c3ccccc3)N2[C@@H](c2ccc(OCCOC(=O)[C@@H]3C[C@@H]4C(=O)N[C@@H](CCCC[N+](C)(C)C)C(=O)N4[C@@H]3c3ccc(O)cc3)cc2)[C@]12C(=O)Nc1ccccc12` , what is its reported composite z-score?
-0.0494

====

The compounds listed here are annotated with their z-score.
Assay: basal HepG2 mitochondrial membrane potential changes, profiling panel, cell-based, JC-1 fluorescence, 24 h, 100 nL compound (AID 1167); further: test concentration not given here
Conditions: higher = more signal
Please reply with the number alone, leaving off any unit.

Sample answers from the record:
>  <compound>
CN1C(=O)C2C=CC(C(O)C3CCCCC3)N(Nc3ccc([N+](=O)[O-])cc3[N+](=O)[O-])C2C1=O (configuration not stated)

>  <z-score>
-1.18

$$$$
>  <compound>
COC(=O)[C@@]1(Cc2ccc(F)cc2)[C@H]2c3cc(C(=O)N(C)C)n(CC4CC4)c3C[C@H]2CN1C(=O)c1ccccc1

>  <z-score>
1.41

$$$$
>  <compound>
COCCn1c(C(=O)N2CCCC2)cc2c1C[C@H]1CN(C(=O)c3ccccc3)[C@@](Cc3ccc(F)cc3)(C(=O)OC)[C@@H]21

>  <z-score>
0.584

$$$$
>  <compound>
O=C(O)[C@@]1(CCS(=O)(=O)c2ccccc2)COC(c2ccc(OCCCO)cc2)=N1

>  <z-score>
-1.13

$$$$
>  <compound>
CCOC(=O)[C@H]1C/C=C/C[C@H](C(=O)OCC)C(=O)O[C@H]2[C@@H](OC)O[C@H](CO)[C@@H](OC(=O)Nc3cccc(F)c3)[C@@H]2OC1=O

>  <z-score>
-3.56

$$$$
>  <compound>
COc1cc2c(cc1O)C=[N+](Cc1cccc(OC(F)(F)F)c1)CC2

>  <z-score>
1.01

$$$$

For `NC(=O)[C@@H]1[C@H]2C(=O)O[C@H](c3ccccc3)[C@H](c3ccccc3)N2[C@H](c2ccc(O)cc2)[C@@]12C(=O)Nc1ccc(C#CC3(O)CCCCCC3)cc12` , what is its reported z-score?
-0.717

====

Assay: Plasmodium falciparum growth inhibition, primary screen, strain 3D7, DAPI fluorescence, 100 nL (AID 1184);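 further: parasites grown inside human red blood cells in medium with human serum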
Conditions: P. falciparum 3D7 growth, 3 d, higher = more signal
experimental-readout: z-score
Please reply with the number alone, leaving off any unit.

Sample answers from the record:
>  <smiles-structure>
CC(C)(C)OC(=O)CC[C@]1(C(=O)O)N=C(c2ccc(OCCCO)cc2)O[C@H]1c1ccccc1N=[N+]=[N-]

>  <z-score>
-0.164

$$$$
>  <smiles-structure>
COC(=O)[C@@]1(Cc2ccc(OC)cc2)[C@H]2c3cc(C(=O)N(C)C)n(Cc4cccc5ccccc45)c3C[C@H]2CN1C(=O)c1ccccc1

>  <z-score>
-1.61

$$$$
>  <smiles-structure>
COc1cc2c(cc1O)C=[N+](Cc1cccc(OC(F)(F)F)c1)CC2

>  <z-score>
-1.94

$$$$
>  <smiles-structure>
CO[C@H]1O[C@H](CO)[C@@H](OC(=O)Nc2ccc(Br)cc2)[C@H](OC(=O)c2cc3ccccc3[nH]2)[C@H]1OC(=O)c1cc2ccccc2[nH]1

>  <z-score>
-1.64

$$$$
>  <smiles-structure>
O=C1O[C@H](c2ccccc2)[C@H](c2ccccc2)N2[C@H]1[C@@H](C(=O)O)[C@]1(C(=O)Nc3ccc(C#CC4=CCCCC4)cc31)[C@H]2c1ccccc1OCCO

>  <z-score>
-1.86

$$$$

Let's switch to this molecule now.
For `COC(=O)C(CC#Cc1ccc2c(c1)[C@]1(C(=O)N2)[C@H](c2ccc(O)cc2)N2[C@H](c3ccccc3)[C@H](c3ccccc3)OC(=O)[C@H]2[C@@H]1C(=O)Nc1nc2ccccc2s1)C(=O)OC` , what is its reported z-score?
-0.591

====

Biological target: Calmodulin-1 (Homo sapiens)
Experiment: CALM1 binders on microarrays, EGTA buffer, profiling panel, biochemical, small-molecule microarray, Cy5-labelled CALM1 (AID 1111);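 further: labelled calmodulin applied in Tris saline Tween buffer holding calcium plus EGTA and DTT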
Settings: Cy5-CALM1 binding fluorescence, higher = more signal
The molecules listed here are annotated with their composite z-score.
Please reply with the number alone, leaving off any unit.

Sample answers from the record:
>  <molecule>
C#CCN(CC1=CCCCC1)[C@H](c1ccccc1Br)[C@@H](O)Cc1ccccc1

>  <composite z-score>
-0.929

$$$$
>  <molecule>
C=CCOC(=O)[C@H]1[C@@H]2C(=O)O[C@@H](c3ccccc3)[C@@H](c3ccccc3)N2[C@@H](c2ccc(OCCOC(=O)[C@H]3C[C@H]4C(=O)N5CCC[C@H]5C(=O)N4[C@H]3c3ccc(O)cc3)cc2)[C@]12C(=O)Nc1ccccc12

>  <composite z-score>
0.959

$$$$
>  <molecule>
OC([C@@H]1CC(c2ccccc2)=NO1)[C@H]1CC(c2ccccc2)=NO1 (some centres undefined)

>  <composite z-score>
-0.181

$$$$

Let's switch to this molecule now.
For CCCCN1CC=CC23O[C@@H]4C=CCOC(=O)[C@@H]4[C@H]2C(=O)N(CCCCCO)[C@@H]3C1=O (some centres undefined) , what is its reported composite z-score?
-0.615

====

The compounds listed here are annotated with their composite z-score.
Target: Alpha-bungarotoxin (Bungarus multicinctus)
Test: alpha-bungarotoxin binders on microarray, profiling panel, artefact control for SMM control protein annotation, biochemical, small-molecule microarray, Alexa647 label, 635/667 nm fluorescence (AID 1117)
Settings: alpha-BTX-A647 binding fluorescence, higher = more signal
Please reply with the number alone, leaving off any unit.

For CCOc1cc(C(O)C2C=CC3C(=O)N(c4ccccc4)C(=O)C3N2Nc2ccccc2)ccc1O (stereo not drawn) , what is its reported composite z-score?
0.147

For COc1ccc(C(O)C2C=CC3C(=O)N(c4ccccc4)C(=O)C3N2Nc2ccc(C(C)C)cc2)cc1OCc1ccccc1 (stereo not drawn) , what is its reported composite z-score?
2.07

For COc1ccc(C(O)C2C=CC3C(=O)N(C)C(=O)C3N2N2CCCCC2)c2ccccc12 (stereo not drawn) , what is its reported composite z-score?
1.34

For `COCCn1c(C(=O)N2CCCC2)cc2c1C[C@H]1CN(C(=O)c3ccccc3)[C@@](Cc3ccc(F)cc3)(C(=O)OC)[C@@H]21` , what is its reported composite z-score?
0.476

For `O=C(c1ccccc1)N1Cc2ccccc2[C@@H]2OC(c3ccc(OCCCO)cc3)=N[C@]2(Cc2ccccc2)C1=O` , what is its reported composite z-score?
1.19

For `CN(C)C(=O)[C@@]1(Cc2ccccc2)N=C(c2ccc(OCCCO)cc2)O[C@H]1c1ccccc1N=[N+]=[N-]` , what is its reported composite z-score?
0.567

For CC(C)(C)OC(=O)CC[C@@]1(C(=O)NCC(O)CO)N=C(c2ccc(OCCCO)cc2)O[C@@H]1c1ccccc1N=[N+]=[N-] (stereo partly drawn) , what is its reported composite z-score?
1.6

For `O=C(NCc1ccccc1)[C@@]1(CCS(=O)(=O)c2ccccc2)N=C(c2ccc(OCCCO)cc2)O[C@H]1c1ccccc1` , what is its reported composite z-score?
2.03
